# assayName: Drug level in Solanum lycopersicum (tomato) green seeds measured 90 days post dose following field application at 1 kg of active ingredient/hectare
# appliedConditions: green seeds
Listed here: items and their measured concentration at 2160 h.
reportedProperty: concentration at 2160 h (ng/g)

• CCOP(=O)(SC(C)CC)SC(C)CC (configuration not stated) = 21
• CCOP(=S)(OCC)SCSCC [PHORATE] = 14

---

Listed here: items and their measured log10 LD50.
# assayName: Toxicity in Rattus norvegicus (rat)
# appliedConditions: in vivo
reportedProperty: log10 LD50 (log10 of the value in mg/kg)

* CCOP(=S)(OCC)SCSCC [PHORATE] | 0.51
* CCOP(=O)(SC(C)CC)SC(C)CC (stereo unspecified) | 1.57
* CCCCN(CCCC)SN(C)C(=O)Oc1cccc2c1OC(C)(C)C2 | 2.32
* CNC(=O)Oc1cccc2c1OC(C)(C)C2 | 0.90
* CCOP(=S)(OCC)Oc1ncn(-c2ccccc2)n1 | 1.83
* CCOP(=O)(NC(C)C)Oc1ccc(SC)c(C)c1 (stereo unspecified) | 1.20

---

Listed here: items and their measured concentration at 360 h.
# assayName: Drug level in Cicer arietinum (chickpea) roots measured 15 days post dose following field application at 1 and 2 kg of active ingredient/hectare
# Type: ADME, Root
# appliedConditions: other: field application, read-out: Drug uptake
reportedProperty: concentration at 360 h (ng/g)

• CCCCN(CCCC)SN(C)C(=O)Oc1cccc2c1OC(C)(C)C2 = 530
• CCOP(=S)(OCC)SCSCC [PHORATE] = 2310

---

# System: Meloidogyne incognita
# assayName: Nematicidal activity against root-knot nematode Meloidogyne incognita J2 (root-knot nematode) infested tomato plants plots assessed as reduction in nematode population measured 55 days post dose following field application at 1 to 2 kg of active ingredient/hectare
# Format: functional
# Design: scale not given: the % may be the effect or the level left
reportedProperty: Activity (%)

* CCOP(=O)(SC(C)CC)SC(C)CC (centres undefined) | 57
* CCOP(=S)(OCC)Oc1ncn(-c2ccccc2)n1 | 55
* CCCCN(CCCC)SN(C)C(=O)Oc1cccc2c1OC(C)(C)C2 | 52
* CCOP(=S)(OCC)SCSCC [PHORATE] | 45

---

# assayName: Cmax in Solanum lycopersicum (tomato) shoots measured 30 days post dose following field application at 1 and 2 kg of active ingredient/hectare
# Type: ADME, Shoot
# appliedConditions: other: field application
reportedProperty: Cmax (ng/g)

• CCOP(=O)(SC(C)CC)SC(C)CC (stereo unspecified) = 440

---

# assayName: Drug level in Cicer arietinum (chickpea) green seeds measured 120 days post dose following field application at 1 kg of active ingredient/hectare
reportedProperty: concentration at 2880 h (ng/g)

• CCOP(=S)(OCC)SCSCC [PHORATE] = 3

---

# Tested on: Rotylenchulus reniformis
# assayName: Nematicidal activity against Rotylenchulus reniformis (reniform nematode) infested chickpea plants plots assessed as reduction in nematode population measured 55 days post dose following field application at 1 to 2 kg of active ingredient/hectare
# Type: functional
# Set-up: scale not given: the % may be the effect or the level left
reportedProperty: Activity

• CCCCN(CCCC)SN(C)C(=O)Oc1cccc2c1OC(C)(C)C2 [CARBOSULFAN] = 37%
• CCOP(=O)(SC(C)CC)SC(C)CC (centres undefined) [CADUSAFOS] = 49%
• CCOP(=S)(OCC)Oc1ncn(-c2ccccc2)n1 [TRIAZOPHOS] = 38%
• CCOP(=S)(OCC)SCSCC [PHORATE] = 28%

---

# assayName: Drug level in Solanum lycopersicum (tomato) green seeds measured 100 days post dose following field application at 1 kg of active ingredient/hectare
reportedProperty: concentration at 2400 h (ng/g)

* CCOP(=O)(SC(C)CC)SC(C)CC (configuration not stated) | 6
* CCOP(=S)(OCC)SCSCC [PHORATE] | 10

---

Listed here: items and their measured concentration at 2400 h.
# assayName: Drug level in Solanum lycopersicum (tomato) green seeds measured 100 days post dose following field application at 2 kg of active ingredient/hectare
reportedProperty: concentration at 2400 h (ng/g)

* CCOP(=S)(OCC)SCSCC [PHORATE] | 14
* CCOP(=O)(SC(C)CC)SC(C)CC (configuration not stated) [CADUSAFOS] | 10

---

Listed here: items and their measured solubility.
# assayName: physchem
# appliedConditions: buffer
reportedProperty: solubility (µg/mL)

- CCOP(=O)(SC(C)CC)SC(C)CC (stereo not drawn): 248
- CCOP(=S)(OCC)Oc1ncn(-c2ccccc2)n1: 30
- CNC(=O)Oc1cccc2c1OC(C)(C)C2: 700

---

# assayName: Drug level in Cicer arietinum (chickpea) green seeds measured 120 days post dose following field application at 2 kg of active ingredient/hectare
reportedProperty: concentration at 2880 h (ng/g)

* CCOP(=S)(OCC)SCSCC [PHORATE] | 6

---

# assayName: Drug level in Solanum lycopersicum (tomato) green seeds measured 120 days post dose following field application at 2 kg of active ingredient/hectare
Listed here: items and their measured concentration at 2880 h.
reportedProperty: concentration at 2880 h (ng/g)

- CCOP(=S)(OCC)SCSCC [PHORATE]: 4
- CCOP(=O)(SC(C)CC)SC(C)CC (configuration not stated): 3

---

# assayName: Cmax in Cicer arietinum (chickpea) shoots measured 15 days post dose following field application at 1 and 2 kg of active ingredient/hectare
# Assay type: ADME, Shoot
# appliedConditions: other: field application
reportedProperty: Cmax (ng/g)

• CCOP(=O)(SC(C)CC)SC(C)CC (stereo unspecified) = 340

---

# assayName: Drug level in Cicer arietinum (chickpea) green seeds measured 100 days post dose following field application at 1 kg of active ingredient/hectare
reportedProperty: concentration at 2400 h (ng/g)

* CCOP(=S)(OCC)Oc1ncn(-c2ccccc2)n1 | 4

---

# assayName: Drug level in Cicer arietinum (chickpea) green seeds measured 100 days post dose following field application at 1 kg of active ingredient/hectare
# appliedConditions: green seeds
reportedProperty: concentration at 2400 h

* CCOP(=O)(SC(C)CC)SC(C)CC (configuration not stated) [CADUSAFOS] | 3 ng/g
* CCOP(=S)(OCC)SCSCC [PHORATE] | 8 ng/g

---

Listed here: items and their measured concentration at 2400 h.
# assayName: Drug level in Cicer arietinum (chickpea) green seeds measured 100 days post dose following field application at 2 kg of active ingredient/hectare
# appliedConditions: green seeds
reportedProperty: concentration at 2400 h (ng/g)

* CCOP(=O)(SC(C)CC)SC(C)CC (configuration not stated) | 5
* CCOP(=S)(OCC)SCSCC [PHORATE] | 19

---

# assayName: Drug level in Solanum lycopersicum (tomato) green seeds measured 90 days post dose following field application at 1 kg of active ingredient/hectare
reportedProperty: concentration at 2160 h

• CCOP(=S)(OCC)Oc1ncn(-c2ccccc2)n1 [TRIAZOPHOS] = 2 ng/g

---

# assayName: in vivo
# appliedConditions: cicer arietinum, Shoot
reportedProperty: Cmax at 720 h (ng/g)

* CCOP(=S)(OCC)Oc1ncn(-c2ccccc2)n1 [TRIAZOPHOS] | 250

---

Listed here: items and their measured Cmax.
# assayName: Cmax in Cicer arietinum (chickpea) shoots measured 45 days post dose following field application at 1 and 2 kg of active ingredient/hectare
# Assay type: ADME, Shoot
# appliedConditions: other: field application
reportedProperty: Cmax (ng/g)

* CCOP(=S)(OCC)SCSCC [PHORATE] | 680
* CCCCN(CCCC)SN(C)C(=O)Oc1cccc2c1OC(C)(C)C2 | 24800

---

# System: Meloidogyne incognita
# assayName: Nematicidal activity against root-knot nematode Meloidogyne incognita J2 (root-knot nematode) infested tomato plants plots assessed as reduction in nematode population measured 110 days post dose following field application at 1 to 2 kg of active ingredient/hectare
# Assay type: functional
# Set-up: scale not given: the % may be the effect or the level left
reportedProperty: Activity (%)

- CCCCN(CCCC)SN(C)C(=O)Oc1cccc2c1OC(C)(C)C2: 45
- CCOP(=S)(OCC)Oc1ncn(-c2ccccc2)n1: 38
- CCOP(=S)(OCC)SCSCC [PHORATE]: 17
- CCOP(=O)(SC(C)CC)SC(C)CC (centres undefined): 60

---

# Tested on: Rotylenchulus reniformis
# assayName: Nematicidal activity against Rotylenchulus reniformis (reniform nematode) infested in tomato plants plots assessed as reduction in nematode population measured 55 days post dose following field application at 1 to 2 kg of active ingredient/hectare
# Assay type: functional
# Set-up: scale not given: the % may be the effect or the level left
Listed here: items and their measured Activity.
reportedProperty: Activity

- CCOP(=S)(OCC)SCSCC [PHORATE]: 36%
- CCOP(=O)(SC(C)CC)SC(C)CC (centres undefined): 39%
- CCCCN(CCCC)SN(C)C(=O)Oc1cccc2c1OC(C)(C)C2: 23%
- CCOP(=S)(OCC)Oc1ncn(-c2ccccc2)n1: 30%
